tested on: SNB-19 CNS; assay: NCI-60 one-dose screen, 48 h; details: 10 µM unless noted
This is part of a sample that, as a whole, favours compounds with a hit. Of some 83,000 tested, about 20% had one in any assay. Calls of active or inactive are those of the source. The calls were made as follows: active = growth percent below 10; inactive = the rest.
Choose the fitting class; nothing outside T for active, F for inactive is accepted.

[
  {
    "COMPOUND": "CC(C)(C)n1cc(-c2ccnc(NCCNS(=O)(=O)c3ccc(C(F)(F)F)cc3)c2)c(-c2ccccc2)n1",
    "LABEL": "F"
  },
  {
    "COMPOUND": "C#C[C@]1(O)CC[C@H]2[C@@H]3CC=C4c5sc(-c6ccccc6)nc5CC[C@]4(C)[C@H]3CC[C@@]21C",
    "LABEL": "F"
  },
  {
    "COMPOUND": "N#C/C(=N\\Nc1ccccc1)C(=O)Nc1cc(-c2ccccc2)nn1-c1ccccc1",
    "LABEL": "F"
  },
  {
    "COMPOUND": "CCCCCCCC/C=C\\CCCCCCCCOc1ccc(CC(=O)NCC[N+]2(C)CCCC2)cc1",
    "LABEL": "F"
  },
  {
    "COMPOUND": "CN(C)CCOc1ccc(/C(=C(/CCCCCCCCCC[P+](c2ccccc2)(c2ccccc2)c2ccccc2)c2ccccc2)c2ccccc2)cc1",
    "LABEL": "T"
  },
  {
    "COMPOUND": "O=C(O)/C=C/c1cn(-c2ccccc2)nc1-c1ccc(F)cc1",
    "LABEL": "F"
  },
  {
    "COMPOUND": "O=C1/C(=C/c2ccccc2)COc2ccc(O)cc21",
    "LABEL": "F"
  },
  {
    "COMPOUND": "CC/C(=C(/c1ccc(Cl)cc1)c1ccc(OCCN2CCCC2)cc1)c1ccccc1",
    "LABEL": "F"
  },
  {
    "COMPOUND": "Oc1ccc(Cc2ccc(O)c3ncccc23)c2cccnc12",
    "LABEL": "F"
  },
  {
    "COMPOUND": "CS(=O)(=O)Nc1cc(-c2ccc3ncnc(Nc4cccc(Cl)c4)c3c2)cnc1Cl",
    "LABEL": "F"
  }
]

(Q) Lab log entry: Cc1cc2c(c(C)n1)CN(C(=O)Nc1nc(-c3cncs3)ccc1N)C2 — outcome as called in the assay?
(A) F

(Q) # lookup: test call for O=C(c1ccccc1)[C@@H](c1ccccc1)[C@]1(O)C(=O)Nc2ccccc21
(A) F

(Q) Give the logged outcome of this assay for the following compound: O=C(OCC(O)C(=O)NC12CC3CC(CC(C3)C1)C2)c1cccc(Br)c1 (stereo not drawn)
(A) F

(Q) What was the test verdict on O=c1c(Cc2ccc(F)cc2)cc(-c2ccccc2)nn1C/C(=N/O)c1ccccc1 ?
(A) F

(Q) Could you check what this test reported for COc1cccc(/C=C/C(=O)/C=C(/C=C/c2cccc(OC)c2OC)OB(F)F)c1OC ?
(A) F

----------
Let's look at some compounds and their measured growth.
tested on: RXF 393 renal; assay: NCI-60 one-dose screen, 48 h (100 = growth as untreated, 0 = no growth, -100 = all killed); conditions: 10 µM unless noted
Compounds without any hit were thinned out: in the full panel of roughly 83,000, 20% have a hit.
Report as a plain number; the unit % is understood.

Example compounds with recorded growth:
[
  {
    "COMPOUND": "COC1CC(O)C2=C(CC3C(/C(C)=C\\CC=C(C)C)CCC3(C)O2)C1=O (stereo not given)",
    "READOUT LABEL": "growth",
    "VAL": 110
  },
  {
    "COMPOUND": "CN(C)CCCN(CCC1CCCCC1)CCC1CCCCC1",
    "READOUT LABEL": "growth",
    "VAL": 70.8
  },
  {
    "COMPOUND": "CCOC(=O)c1c(C)nc2c(c1N)C(=O)C(=O)N2CCc1ccc(OC)c(OC)c1",
    "READOUT LABEL": "growth",
    "VAL": 83.8
  }
]

(Q) Query: growth; subject: CCOC(=O)C#Cc1c(CC(=O)OCC)nnn1[C@H]1O[C@@H](CO)[C@@H]2OC(C)(C)O[C@@H]21
(A) 3.65

(Q) May I ask what growth has been recorded for N#Cc1c(-c2ccc(Cl)cc2)nc(NN=Cc2cccc(Cl)c2)nc1N1CCOCC1 ?
(A) 61.4

----------
test system: KM12 colon; assay: NCI-60 one-dose screen, 48 h (100 = growth as untreated, 0 = no growth, -100 = all killed); details: 10 µM unless noted
This is part of a sample that, as a whole, favours compounds with a hit. Of some 83,000 tested, about 20% had one in any assay. Calls of active or inactive are those of the source. How the source made its calls: active means growth percent below 10; inactive means the rest.
READOUT LABEL: growth

[
  {
    "MOLECULE": "CNC1=C([N+](=O)[O-])C(c2ccc(OC)cc2)C(C#N)=C(c2ccc[nH]2)O1 (stereo not given)",
    "growth": "114% (inactive)"
  },
  {
    "MOLECULE": "N#CC1=C(N)Oc2c(ccc3ccccc23)C1c1cc2ccccc2n2nnnc12 (stereo not given)",
    "growth": "18.1% (inactive)"
  },
  {
    "MOLECULE": "O=C1N/C(=N/N=C(c2ccccc2)c2ccccc2)S/C1=C\\c1ccc(Br)cc1",
    "growth": "92.9% (inactive)"
  }
]

(Q) Report growth for CC(C)(C)n1cc(-c2ccnc(NCCNS(=O)(=O)c3ccc(C(F)(F)F)cc3)c2)c(-c2ccccc2)n1 please.
(A) 96.7% (inactive)

(Q) Return reported growth; argument: Nc1nc(Nc2ccc([N+](=O)[O-])cc2O)nc(C(Cl)(Cl)Cl)n1
(A) 49.8% (inactive)

----------
Recorded growth for the following compounds
system: MOLT-4 leukemia; test: NCI-60 one-dose screen, 48 h (100 = growth as untreated, 0 = no growth, -100 = all killed); conditions: 10 µM unless noted
Compounds without any hit were thinned out: in the full panel of roughly 83,000, 20% have a hit. The source made the active and inactive calls. Rule for the calls: active = growth percent below 10; inactive = the rest.

Reference set (5 entries):
[
  {
    "COMPOUND": "COc1cccc2cc(N(C)c3nc(C)nc4c3CCC4)ccc12",
    "VAL": "14.8% (inactive)"
  },
  {
    "COMPOUND": "COc1cc2cc(Oc3ccc(NC(=O)Nc4ccc(Cl)c(Cl)c4)cc3)c(C)nc2cc1OCCN1CCCCC1",
    "VAL": "64.6% (inactive)"
  },
  {
    "COMPOUND": "Cc1ccccc1NC(=O)Cn1cc(CN2CCN(c3ccnc4cc(Cl)ccc34)CC2)nn1",
    "VAL": "45.3% (inactive)"
  },
  {
    "COMPOUND": "O=C(c1ccc(F)cc1)C1CCN(CCn2c(=O)[nH]c3ccccc3c2=O)CC1",
    "VAL": "95.5% (inactive)"
  },
  {
    "COMPOUND": "O=[N+]([O-])c1ccc(Oc2cccc3c(Oc4ccc([N+](=O)[O-])cc4[N+](=O)[O-])cccc23)c([N+](=O)[O-])c1",
    "VAL": "102% (inactive)"
  }
]

(Q) Look up growth: Nc1ncc(-c2ccc3ncnc(N4CCc5cc(F)c(Cl)cc54)c3c2)cc1C=O
(A) 2.46% (active)

----------
test system: OVCAR-5 ovarian; assay: NCI-60 one-dose screen, 48 h (100 = growth as untreated, 0 = no growth, -100 = all killed); details: 10 µM unless noted
About 83,000 compounds went through this panel and 20% of them were active in at least one assay; those are over-represented in the sample as a whole.
Classification field: enter MET for growth values not below 70%, NOT MET for values below it.

[
  {
    "COMPOUND": "COc1ccc(Cn2cc(C(=O)N=Nc3c(O)[nH]c4ccc(Br)cc34)nn2)cc1",
    "LABEL": "MET"
  },
  {
    "COMPOUND": "COC(=O)c1c(C)nc(C)c2c1C(=O)C(Br)=C(NCCCCO)C2=O",
    "LABEL": "MET"
  },
  {
    "COMPOUND": "O=C(/C=C/c1ccc([N+](=O)[O-])cc1)c1cccc(Nc2nc(Nc3ccccc3)nc(Nc3ccccc3)n2)c1",
    "LABEL": "MET"
  },
  {
    "COMPOUND": "Brc1ccc(-c2nn(-c3ccccc3)cc2-c2nn[nH]n2)s1",
    "LABEL": "MET"
  },
  {
    "COMPOUND": "CC1=NC(=S)NC(c2ccccc2)/C1=C1/CC(c2ccccc2O)NN1 (stereo not given)",
    "LABEL": "MET"
  },
  {
    "COMPOUND": "COc1cccc2cc(N(C)c3ncnc4ccccc34)ccc12",
    "LABEL": "NOT MET"
  },
  {
    "COMPOUND": "CCCN1C(=O)N(CCC)C2C1NC(=S)N2/N=C/C=C/c1ccccc1OC (stereo not given)",
    "LABEL": "NOT MET"
  },
  {
    "COMPOUND": "Cc1ccc(C(F)(F)F)cc1N1CCN(C(=O)[C@H]2C[C@H]2c2ccc(C(F)(F)F)nc2)CC1",
    "LABEL": "MET"
  },
  {
    "COMPOUND": "Cc1ccc(S(=O)(=O)c2nc(-c3ccccc3)oc2S(C)=O)cc1 (stereo not given)",
    "LABEL": "NOT MET"
  }
]

(Q) Does CNC1=C(Br)C(=O)c2c(C(=O)OC)c(C)nc(C)c2C1=O have a reported growth of at least 70%?
(A) MET
